Every entry's value here was drawn from patent US20050043315A1.

Recorded endpoint: melting point (°C)

[
  {
    "Compound string": "Nc1ncc(-c2ccc(=O)[nH]n2)c(-c2cccc(F)c2)n1",
    "Readout units": "°C",
    "melting point": 249
  },
  {
    "Compound string": "Cc1ccccc1-c1nc(N)ncc1-c1ccc(=O)[nH]n1",
    "Readout units": "°C",
    "melting point": 313
  }
]

###

# maps each entry to its melting point

[
  {
    "Molecule": "CC(C)n1nc(-c2c(-c3ccccc3)nc(N)n(CC(=O)OC(C)(C)C)c2=O)ccc1=O [Example 159]",
    "melting point": "138 to 141 °C"
  },
  {
    "Molecule": "COc1nc(N)nc(-c2ccccc2)c1-c1ccc(=O)n(C)n1 [Example 144]",
    "melting point": "218 to 220 °C"
  },
  {
    "Molecule": "CC(C)n1nc(-c2c(OCCO)nc(N)nc2-c2ccccc2)ccc1=O [Example 86]",
    "melting point": "182 to 183 °C"
  },
  {
    "Molecule": "CC(C)n1nc(-c2c(NCc3ccncc3)nc(N)nc2-c2ccccc2)ccc1=O [Example 123]",
    "melting point": "221.5 to 222.5 °C"
  },
  {
    "Molecule": "CC(C)n1nc(-c2c(OCC(=O)NC3CC3)nc(N)nc2-c2ccccc2)ccc1=O [Example 103]",
    "melting point": "87 to 92 °C"
  },
  {
    "Molecule": "CCCn1nc(-c2cnc(N)nc2-c2ccccc2)ccc1=O [Example 5]",
    "melting point": "188 to 189 °C"
  }
]

Please look up its melting point: COc1ccc(-c2nc(N)ncc2-c2ccc(=O)n(C(C)C)n2)cc1F [Example 46] 174 °C

Then what about the molecule Nc1ncc(-c2ccc(=O)n(Cc3ccccc3)n2)c(-c2ccccc2)n1 [Example 6] ? 229 to 230 °C

Entry to check: CC(C)n1nc(-c2cnc(N)nc2-c2cccc(O)c2)ccc1=O (hydrate or solvate) [Example 187] 204 °C
